Record set: IC50 | Poly [ADP-ribose] polymerase 1 (Homo sapiens, UniProt P09874) | literature, multiple sources.

# count of solved cases: 2
[
  {
    "Compound": "NC(=O)c1cccc2cn(-c3ccc([C@]4(F)CCCNC4)cc3)nc12 (single isomer, unassigned)",
    "System": "Poly [ADP-ribose] polymerase 1 (Homo sapiens, UniProt P09874)",
    "IC50": "< 100 nM"
  },
  {
    "Compound": "O=c1[nH]nc(Cc2ccc(F)c(P3(=O)CCN(CC4CC4)CC3)c2)c2ccccc12",
    "System": "Poly [ADP-ribose] polymerase 1 (Homo sapiens, UniProt P09874)",
    "IC50": "< 100 nM"
  }
]

Kindly consider the entry below.
[ask] For the record COCCOC(=O)Nc1nc2cc(-c3n[nH]c(=O)c4ccccc34)ccc2[nH]1 , what value of IC50 is listed for Poly [ADP-ribose] polymerase 1 (Homo sapiens, UniProt P09874)?
[reply] 5000 to 10000 nM
